Data origin, for the record: patent EP0942721B1

Assay: Oral bioavailability studies in dogs
Format: in vivo, beagle dogs
Conditions: dog, in vivo; administered as an unformulated solid in a capsule dosage form; 5 mg/kg oral dose in dogs
Experimental: Dogs (beagle dogs, mixed sexes, weighing 7-14 kg) were fasted overnight prior to dosing, but were permitted water ad libitum. Each dog received a 100 µg/kg subcutaneous dose of histamine approximately 30 minutes prior to dosing. […] Concentrations of parent drug were determined by reverse phase HPLC with low wavelength UV detection following liquid-liquid extraction of the plasma samples. The parent drug area under the curve was calculated by the trapezoidal method over the time course of the study. […]
readoutKind: bioavailability at 12 h

Short answer for CC(C)c1nc(CN(C)C(=O)N[C@H](C(=O)N[C@@H](Cc2ccccc2)C[C@H](O)[C@H](Cc2ccccc2)NC(=O)OCc2cncs2)C(C)C)cs1 [bis-tosylate of compound III] : bioavailability at 12 h was < 2%

----------
assay: Oral bioavailability studies in dogs; type: in vivo, beagle dogs; details: both sexes, beagle, dog, plasma; administered as an unformulated solid in a capsule dosage form; 5 mg/kg oral dose in dogs
readoutKind: bioavailability

Short answer for "CC(C)c1nc(CN(C)C(=O)N[C@H](C(=O)N[C@@H](Cc2ccccc2)C[C@H](O)[C@H](Cc2ccccc2)NC(=O)OCc2cncs2)C(C)C)cs1" : bioavailability was < 2%
